Provide the reported IC90 of each item.
# System: 4T1
# METHOD_NOTES: Antiproliferative activity against mouse 4T1 cells after 48 hrs by MTT assay
# Type: functional, cell-based
# CONDITION_SUMMARY: 4T1, 48 h
Numbers only, in µg/mL.

MOLECULE: N#CC1=C(N)OC2=C(C(=O)CC2)C1c1ccc(Cl)cc1Cl (stereo unspecified)
EXPERIMENTAL_ENDPOINT: IC90
UNIT_SYMBOL: µg/mL
OBSERVED: 307

Provide IC90 for all items below, preserving their order.
1. N#CC1=C(N)OC2=C(C(=O)CC2)C1c1cccc(C#N)c1 (stereo unspecified)
2. O=c1oc2ccccc2c(O)c1C(c1ccc(F)c(F)c1)c1c(O)c2ccccc2oc1=O
3. N#Cc1ccc(C(c2c(O)c3ccccc3oc2=O)c2c(O)c3ccccc3oc2=O)cc1
4. COc1ccccc1C(c1c(O)c2ccccc2oc1=O)c1c(O)c2ccccc2oc1=O
5. COc1cc(C2C(C#N)=C(N)OC3=C2C(=O)CC3)cc(OC)c1OC (stereo unspecified)

[299, 98.4, 102, 133, 365]

Batch: IC90 for all items listed.
1. N#CC1=C(N)Oc2c(c(=O)oc3ccccc23)C1c1ccc([N+](=O)[O-])cc1 (stereo unspecified)
2. CC(C)(C)c1ccc(C2C(C#N)=C(N)OC3=C2C(=O)CC3)cc1 (stereo unspecified)
3. COc1ccc(C(c2c(O)c3ccccc3oc2=O)c2c(O)c3ccccc3oc2=O)cc1

1: 289; 2: 288; 3: 167

====

# System: Mus musculus
# METHOD_NOTES: Acute toxicity in Kunming mouse assessed as tremor induction at 500 mg/kg, administered as single dose after 14 days
# Assay type: organism-based
# CONDITION_SUMMARY: in vivo, 336 h

SMILES_STRUCTURE: COc1ccc(C(c2c(O)c3ccccc3oc2=O)c2c(O)c3ccccc3oc2=O)cc1
Activity: Non-toxic

SMILES_STRUCTURE: O=c1oc2ccccc2c(O)c1C(c1ccc(F)c(F)c1)c1c(O)c2ccccc2oc1=O
Activity: Non-toxic

SMILES_STRUCTURE: N#Cc1ccc(C(c2c(O)c3ccccc3oc2=O)c2c(O)c3ccccc3oc2=O)cc1
Activity: Non-toxic

SMILES_STRUCTURE: COc1ccccc1C(c1c(O)c2ccccc2oc1=O)c1c(O)c2ccccc2oc1=O
Activity: Non-toxic

====

For each record, write down the corresponding IC90 at 48 h.
# METHOD_NOTES: Cytotoxicity against HUVEC assessed as reduction in cell survival after 48 hrs by MTT assay
# Format: cell-based, Homo sapiens
# CONDITION_SUMMARY: human, HUVEC cells
Give bare numbers, in µg/mL.

Examples with their reported IC90 at 48 h follow.
SMILES_STRUCTURE: N#Cc1ccc(C(c2c(O)c3ccccc3oc2=O)c2c(O)c3ccccc3oc2=O)cc1
OBSERVED: 322
--
SMILES_STRUCTURE: COc1ccc(C(c2c(O)c3ccccc3oc2=O)c2c(O)c3ccccc3oc2=O)cc1
OBSERVED: 363
--
SMILES_STRUCTURE: O=c1oc2ccccc2c(O)c1C(c1ccc(F)c(F)c1)c1c(O)c2ccccc2oc1=O
OBSERVED: 276

Now for the molecule whose IC90 at 48 h we want.
Find the recorded IC90 at 48 h belonging to COc1ccccc1C(c1c(O)c2ccccc2oc1=O)c1c(O)c2ccccc2oc1=O and report it. 269

This collection of values is drawn from ChEMBL document CHEMBL3826930.
